Target: Adenosine receptor A1 (Homo sapiens, UniProt P30542)
Sequence (P30542 whole entry): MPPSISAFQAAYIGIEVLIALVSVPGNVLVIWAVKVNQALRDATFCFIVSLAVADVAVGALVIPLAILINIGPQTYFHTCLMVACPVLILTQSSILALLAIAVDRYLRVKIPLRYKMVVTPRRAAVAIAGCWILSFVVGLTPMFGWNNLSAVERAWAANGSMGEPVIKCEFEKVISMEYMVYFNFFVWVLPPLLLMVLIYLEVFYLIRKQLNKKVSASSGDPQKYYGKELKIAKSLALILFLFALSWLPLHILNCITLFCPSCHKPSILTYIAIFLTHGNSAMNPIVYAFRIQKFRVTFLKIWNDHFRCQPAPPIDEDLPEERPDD
The entries that follow carry Ki values tested on Adenosine receptor A1 (Homo sapiens, UniProt P30542), drawn from several published reports.
measure_name: Ki (nM)

Solved entries (count: 5):
[
  {
    "compound": "Cn1cc2c(nc(NC3CCCCC3)n3nc(-c4ccco4)nc23)n1",
    "data_value": 166
  },
  {
    "compound": "COc1ccccc1-n1nc2c(=O)[nH]c(-c3ccccc3)cn2c1=O",
    "data_value": 2140
  },
  {
    "compound": "Nc1nc(Cl)c2cn(CCc3ccccc3)nc2n1",
    "data_value": 4300
  },
  {
    "compound": "O[C@@H]1[C@H](O)[C@@H]2C[C@@H]2[C@H]1n1cnc2c(NC(C3CC3)C3CC3)ncnc21",
    "data_value": 56.1
  },
  {
    "compound": "CCN(CC)c1nc2nn(C)cc2c2nc(-c3ccco3)nn12",
    "data_value": 1450
  }
]

1: CCCn1c(=O)c2[nH]c(-c3cnn(Cc4noc(-c5ccc(C#N)cc5)n4)c3)nc2n(CCC)c1=O
2: CC(CCc1ccccc1)Nc1nc2nn(C)cc2c2nc(-c3ccco3)nn12 (stereo not given)
3: CCCn1c(=O)c2[nH]c(-c3cnn(Cc4cc(-c5ccccc5OC)on4)c3)nc2n(CCC)c1=O
4: CC(C)CCn1cc2c(nc(NC(=O)Cc3ccc(F)cc3)n3nc(-c4ccco4)nc23)n1
5: Nc1nc(-c2ccco2)nc2cn(-c3ccccc3O)nc12
Incoming: Sort ascending by Ki. Write the labels out in the order the request specifies.
Outgoing: 4, 2, 5, 1, 3

I: CCCn1c(=O)c2nc(-c3cnn(Cc4cccc(Cl)c4F)c3)[nH]c2n(CCC)c1=O
II: CCCNc1nc(-n2cc(-c3ccc(OC)cc3)cn2)nc2c1ncn2C1O[C@H](CO)[C@@H](O)[C@H]1O (stereo not given in full)
Incoming: Of I and II , whose reported Ki is the larger number? Use the label to indicate which entry you chose.
Outgoing: II
(II: 3000 nM, I: 530 nM)

* * *

Target: Adenosine receptor A1 (Homo sapiens, UniProt P30542)
Sequence (P30542 whole entry): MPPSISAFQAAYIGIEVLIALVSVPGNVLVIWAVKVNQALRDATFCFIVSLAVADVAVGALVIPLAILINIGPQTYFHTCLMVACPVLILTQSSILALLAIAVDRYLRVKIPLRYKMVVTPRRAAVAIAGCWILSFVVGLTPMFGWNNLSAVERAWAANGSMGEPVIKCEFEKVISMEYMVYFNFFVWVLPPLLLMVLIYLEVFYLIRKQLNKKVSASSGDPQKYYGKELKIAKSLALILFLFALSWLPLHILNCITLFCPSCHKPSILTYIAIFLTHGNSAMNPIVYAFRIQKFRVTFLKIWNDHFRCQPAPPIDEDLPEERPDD
pKi: −log10 of the molar value.
The entries that follow carry pKi values tested on Adenosine receptor A1 (Homo sapiens, UniProt P30542), drawn from several published reports.
measure_name: pKi

Solved entries (count: 4):
[
  {
    "compound": "O=C(N[C@@H]1[C@@H](O)[C@H](n2cnc3c(NC4CCCC4)ncnc32)O[C@@H]1CO)c1ccc2c(c1)OCO2",
    "assay_target": "Adenosine receptor A1 (Homo sapiens, UniProt P30542)",
    "pKi": 6.35
  },
  {
    "compound": "CCNC(=O)[C@H]1O[C@@H](n2cnc3c(NC(=O)Nc4ccc(S(N)(=O)=O)cc4)ncnc32)C(O)C1O (single isomer, unassigned)",
    "assay_target": "Adenosine receptor A1 (Homo sapiens, UniProt P30542)",
    "pKi": 7.52
  },
  {
    "compound": "Nc1nc(NC(=O)c2ccccc2F)c([N+](=O)[O-])c(-c2ccco2)n1",
    "assay_target": "Adenosine receptor A1 (Homo sapiens, UniProt P30542)",
    "pKi": 6.51
  },
  {
    "compound": "CCNC(=O)[C@H]1O[C@@H](n2cnc3c(N)nc(NCCc4ccc(CCC(=O)N[C@@H](Cc5c[nH]c6ccccc56)C(=O)OC)cc4)nc32)[C@H](O)[C@@H]1O",
    "assay_target": "Adenosine receptor A1 (Homo sapiens, UniProt P30542)",
    "pKi": 5.78
  }
]

P: Cn1cc2c(nc(NC(=O)Cc3ccc(Cl)cc3)n3nc(-c4ccco4)nc23)n1
Q: CCCn1cc2nc(N)n3nc(-c4ccco4)nc3c2c1
Incoming: Could you determine which record has the numerically smaller pKi? Candidates: P and Q Use the label to indicate which entry you chose.
Outgoing: P

1: COc1ccc2cncc(Cc3nc4c([nH]3)c(=O)n(C)c(=O)n4CC(C)C)c2c1
2: CNC(=O)[C@@]12C[C@@H]1[C@@H](n1cnc3c(NCC4CCC4)nc(-n4cc(-c5ccc(Cl)s5)nn4)nc31)[C@H](O)[C@@H]2O
3: C#CCn1c(=O)c2c(nc3ccccn32)n(Cc2ccccc2)c1=O
4: CC(=O)Oc1cccc2cc(-c3ccccc3)c(=O)oc12
5: N#Cc1c(N)nc(SCc2csc(-c3ccc(Cl)cc3)n2)nc1-c1ccc2c(c1)OCO2
Incoming: Please rank these compounds by pKi in descending order. Write the labels out in the order the request specifies.
Outgoing: 5, 3, 2, 1, 4
(5: 7.85, 3: 6.91, 2: 6.15, 1: 5.64, 4: 5.16)

I: O=C(Nc1nc(-c2ccccc2)c(-c2ccccn2)s1)c1ccccc1
II: Nc1nc(NC(=O)c2ccccc2)c([N+](=O)[O-])c(-c2ccco2)n1
Incoming: Of I and II , whose reported pKi is the larger number? Use the label to indicate which entry you chose.
Outgoing: I

a: COc1ccc(-n2cc3c(n2)c(=O)[nH]c2ccccc23)cc1
b: COC(CNc1nc2ccccc2n2nc(-c3ccco3)nc12)OC
c: CCCn1c(=O)c2nc(-c3cnn(Cc4noc(-c5cccc(Cl)c5)n4)c3)[nH]c2n(CCC)c1=O
Incoming: Please rank these compounds by pKi in descending order. Write the labels out in the order the request specifies.
Outgoing: a, b, c

* * *

Target: Adenosine receptor A1 (Homo sapiens, UniProt P30542)
Sequence (P30542 whole entry): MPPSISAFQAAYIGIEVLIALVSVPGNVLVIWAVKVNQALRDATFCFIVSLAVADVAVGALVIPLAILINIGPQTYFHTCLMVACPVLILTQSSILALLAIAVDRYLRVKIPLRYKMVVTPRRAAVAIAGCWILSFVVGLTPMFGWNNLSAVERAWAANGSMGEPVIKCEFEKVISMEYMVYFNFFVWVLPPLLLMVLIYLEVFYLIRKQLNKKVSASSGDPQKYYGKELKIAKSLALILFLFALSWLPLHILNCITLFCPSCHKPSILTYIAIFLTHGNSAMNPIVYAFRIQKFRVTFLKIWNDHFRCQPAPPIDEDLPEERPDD
pKi: −log10 of the molar value.
The entries that follow carry pKi values tested on Adenosine receptor A1 (Homo sapiens, UniProt P30542), drawn from several published reports.
measure_name: pKi

[
  {
    "molecule": "Cc1cc(C)cc(OCC(=O)Nc2nnc(-c3ccccc3)[nH]2)c1",
    "pKi": 5.80
  },
  {
    "molecule": "Nc1ccccc1NC(=O)c1ccc(CCn2ncc3c2nc(N)n2nc(-c4ccco4)nc32)cc1",
    "pKi": 7.15
  },
  {
    "molecule": "COc1ccc(-c2cn3cc(-c4ccccc4)nc(N)c3n2)cc1",
    "pKi": 6.28
  }
]

I: COc1ccc(N(CC(=O)O)C(C)=O)c2sc(NC(=O)c3ccc(F)cc3)nc12
II: Nc1nc2cn(CCc3ccccc3)cc2c2nc(-c3ccco3)nn12
III: Cc1ccc(-c2nc(N)c3nn(Cc4cccc(O)c4)cc3n2)o1
IV: Cc1ccc2c(O)c(C(=O)NC3CCC(C)CC3)cnc2n1 (configuration not stated)
Incoming: Please rank these molecules by pKi in descending order. Write the labels out in the order the request specifies.
Outgoing: II, III, I, IV

1: CCCn1c(=O)c2nc([C@]34CC[C@](C(=O)NCC(=O)O)(CC3)CC4)[nH]c2n(CCC)c1=O
2: S=c1sc2c(ncn3nc(-c4ccco4)nc23)n1-c1ccc(Cl)cc1
Incoming: Of 1 and 2 , whose reported pKi is the larger number? Use the label to indicate which entry you chose.
Outgoing: 2

a: CCCn1c(=O)c2[nH]c([C@H]3CC4C[C@@H]3[C@H]3O[C@@H]43)nc2n(CCC)c1=O
b: CCCn1c(=O)c2[nH]c(-c3cnn(Cc4nc(-c5cccc(C)c5)no4)c3)nc2n(CCC)c1=O
Incoming: Of a and b , whose reported pKi is the larger number? Use the label to indicate which entry you chose.
Outgoing: a
(a: 7.92, b: 5.85)

I: CC(C)(C)c1nc(-c2nccs2)c2sccc2n1
II: CN(C)c1nc(-c2ccco2)c2sccc2n1
Incoming: Of I and II , whose reported pKi is the larger number? Use the label to indicate which entry you chose.
Outgoing: I
(I: 6.62, II: 5.66)

a: Nc1nc(OCCc2cccs2)nc2c1ncn2[C@@H]1O[C@H](CO)[C@@H](O)[C@H]1O
b: Cc1cc(C(=O)Nc2nccs2)ccc1NC(=O)CC(C)(C)C
Incoming: Could you determine which record has the numerically smaller pKi? Candidates: a and b Use the label to indicate which entry you chose.
Outgoing: b

P: CN1CCN(c2nc(-c3ccccc3O)nc3c2ncn3C)CC1
Q: Cn1c2ccccc2n2c(=O)c(-c3ccco3)nnc12
R: CCCC(=O)c1sc(NC(=O)c2ccco2)nc1-c1ccccc1
S: c1ccc(-c2nc(-c3ccccc3)c3nc(C4CCCC4)nc-3[nH]2)cc1
Incoming: Please rank these molecules by pKi in descending order. Write the labels out in the order the request specifies.
Outgoing: S, R, Q, P
(S: 9.54, R: 7.05, Q: 6.68, P: 6.20)
